Provenance of the data: patent US10377770B2

TESTED_SYSTEM: C-Raf FL (full length CRAF with Y340E and Y341E activating mutations, co-expressed with h14-3-3 zeta) (Homo sapiens (Human), UniProt P04049, Y340E/Y341E)
Sequence (P04049 whole entry Y340E/Y341E): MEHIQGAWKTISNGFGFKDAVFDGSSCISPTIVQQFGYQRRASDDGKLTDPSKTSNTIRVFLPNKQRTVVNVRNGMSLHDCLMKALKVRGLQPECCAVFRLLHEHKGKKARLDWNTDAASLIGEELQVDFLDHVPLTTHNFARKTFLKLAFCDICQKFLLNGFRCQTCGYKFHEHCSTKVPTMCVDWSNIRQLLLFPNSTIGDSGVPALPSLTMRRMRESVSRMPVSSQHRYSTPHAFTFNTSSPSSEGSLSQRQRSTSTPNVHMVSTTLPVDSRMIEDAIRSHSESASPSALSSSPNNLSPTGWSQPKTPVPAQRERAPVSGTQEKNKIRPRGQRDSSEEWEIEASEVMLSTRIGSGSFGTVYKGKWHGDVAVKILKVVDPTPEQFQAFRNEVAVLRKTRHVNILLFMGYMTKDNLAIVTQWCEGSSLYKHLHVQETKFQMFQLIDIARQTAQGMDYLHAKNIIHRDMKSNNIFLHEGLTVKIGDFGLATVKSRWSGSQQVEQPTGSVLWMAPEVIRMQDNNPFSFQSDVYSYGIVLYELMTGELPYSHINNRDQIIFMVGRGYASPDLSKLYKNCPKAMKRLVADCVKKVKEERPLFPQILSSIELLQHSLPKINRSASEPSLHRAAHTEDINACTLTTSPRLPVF
Sequence (P63104 whole entry partner): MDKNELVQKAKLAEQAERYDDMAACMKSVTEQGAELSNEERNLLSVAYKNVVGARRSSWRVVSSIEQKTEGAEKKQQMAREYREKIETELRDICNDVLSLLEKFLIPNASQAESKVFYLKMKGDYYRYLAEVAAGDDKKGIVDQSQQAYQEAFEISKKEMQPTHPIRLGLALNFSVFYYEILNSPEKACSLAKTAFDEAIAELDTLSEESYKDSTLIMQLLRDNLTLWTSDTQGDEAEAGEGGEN
PROTOCOL_DETAILS: In vitro Raf activity determination, AlphaScreen p-MEK readout, c-Raf (C-Raf FL)
CONDITION_CONTEXT: c-Raf approximately 4 nM, ATP 1 μM, pre-incubation 60 minutes, reaction 1 hour
pIC50: −log10 of the molar value.
MEASURED_ATTRIBUTE: pIC50

molecule=CCN1C(=O)O[C@H]2COCC[C@@H]2c2cc(-c3cc(NC(=O)c4ccnc(C(F)(F)F)c4F)ccc3C)cnc21 test_result=9.30
molecule=CCN1C(=O)[C@@H]2COCC[C@H]2c2cc(-c3cc(NC(=O)c4ccnc(C(C)(C)F)c4)cnc3C)cnc21 test_result=9.30
molecule=CCN1C(=O)[C@H]2COCC[C@@H]2c2cc(-c3cc(NC(=O)c4ccnc(C(F)(F)F)c4)ccc3C)cnc21 test_result=9.52
molecule=Cc1ccc(NC(=O)c2ccnc(C(C)(F)F)c2)cc1-c1cnc2c(c1)N1CCOC[C@H]1[C@@H](C(C)(C)O)C2 test_result=9.15
molecule="Cc1ncc(NC(=O)c2ccnc(C(C)(F)F)c2)cc1-c1ccc2c(c1)N1CCOC[C@H]1[C@H](C#N)C2 (racemic)" test_result=10.12
molecule="CCN1C(=O)N2COCCC2(C)c2cc(-c3cc(NC(=O)c4ccnc(C(F)(F)F)c4)ccc3C)ccc21 (stereo not shown) [Example 244]" test_result=10.00
molecule=Cc1ccc(NC(=O)c2ccnc(C(C)(C)F)c2)cc1-c1cc2c(cc1F)C[C@](F)(CO)[C@H]1COCCN21 test_result=9.70

---

TESTED_SYSTEM: C-Raf FL (full length CRAF with Y340E and Y341E activating mutations, co-expressed with h14-3-3 zeta) (Homo sapiens (Human), UniProt P04049, Y340E/Y341E)
PROTOCOL_DETAILS: In vitro Raf activity determination, AlphaScreen p-MEK readout, c-Raf (C-Raf FL)
CONDITION_CONTEXT: c-Raf approximately 4 nM, ATP 1 μM, pre-incubation 60 minutes, reaction 1 hour
MEASURED_ATTRIBUTE: IC50 (nM)

smiles_code=CCN1C[C@@H]2COCCN2c2cc(-c3cc(NC(=O)c4ccnc(C(F)(F)F)c4F)ccc3C)cnc2C1=O test_result=0.1
smiles_code=Cc1ccc(NC(=O)c2ccnc(C(C)(F)F)c2)cc1-c1cc(F)c2c(c1)N1CCOC[C@@H]1[C@](F)(CO)C2 test_result=0.3
smiles_code=Cc1ccc(NC(=O)c2cncc(C(F)(F)F)c2)cc1-c1cc(F)c2c(c1)N1CCOC[C@H]1[C@@](F)(CO)C2 test_result=1.3

---

TESTED_SYSTEM: C-Raf FL (full length CRAF with Y340E and Y341E activating mutations, co-expressed with h14-3-3 zeta) (Homo sapiens (Human), UniProt P04049, Y340E/Y341E)
PROTOCOL_DETAILS: In vitro Raf activity determination, AlphaScreen p-MEK readout, c-Raf (C-Raf FL)
CONDITION_CONTEXT: c-Raf approximately 4 nM, ATP 1 μM, pre-incubation 60 minutes, reaction 1 hour
# fulfilled = IC50 below 100 pM (exclusive); not fulfilled = IC50 at/above 100 pM

compound="CCN1C(=O)C2[C@H]3COC[C@H]3[C@@H]2c2cc(-c3cc(NC(=O)c4ccnc(C(F)(F)F)c4)ccc3C)cnc21 (stereo in doubt)" qualitative_label="not fulfilled"
compound="Cc1ccc(NC(=O)c2ccnc(C(C)(F)F)c2)cc1-c1cnc2c(c1)N1CCOC[C@H]1C(C)(C)[C@@H]2O (racemic)" qualitative_label=fulfilled
compound="CCN1C(=O)C2COCCN2c2cc(-c3cc(NC(=O)c4ccnc(C(F)(F)F)c4)ccc3C)cnc21 (stereo in doubt) [Example 115]" qualitative_label=fulfilled
compound="Cc1ccc(NC(=O)c2ccnc(C(F)(F)F)c2)cc1-c1cc2c(nn1)[C@H](O)C[C@@H]1COCCN21 (racemic)" qualitative_label=fulfilled

---

TESTED_SYSTEM: C-Raf FL (full length CRAF with Y340E and Y341E activating mutations, co-expressed with h14-3-3 zeta) (Homo sapiens (Human), UniProt P04049, Y340E/Y341E)
PROTOCOL_DETAILS: In vitro Raf activity determination, AlphaScreen p-MEK readout, c-Raf (C-Raf FL)
CONDITION_CONTEXT: c-Raf approximately 4 nM, ATP 1 μM, pre-incubation 60 minutes, reaction 1 hour
Mark Y for IC50 under 0.2 nM, N if at or over.

compound=Cc1ccc(NC(=O)c2ccnc(C(C)(C)C#N)c2)cc1-c1cnc2c(c1)N1CCOC[C@H]1C[C@H]2O qualitative_label=Y
compound="CCN1C(=O)C2COCCC2(C)c2cc(-c3cc(NC(=O)c4ccnc(C(F)(F)F)c4F)ccc3C)cnc21 (stereo not shown) [Example 348]" qualitative_label=N
compound="Cc1ccc(NC(=O)c2ccnc(C(C)(C)C#N)c2)cc1-c1ccc2c(c1)N1CCOCC1CC2O (racemic)" qualitative_label=Y
compound=Cc1ncc(NC(=O)c2cccc(C(F)(F)F)c2)cc1-c1cc(F)c2c(c1)N1CCOC[C@@H]1[C@](F)(CO)C2 qualitative_label=N
compound=Cc1ccc(NC(=O)c2cncc(C(F)(F)F)c2)cc1-c1cnc2c(c1)N1CCOC[C@@H]1C[C@@H]2O qualitative_label=Y
compound="Cc1ccc(NC(=O)c2ccnc(C(C)(F)F)c2)cc1-c1ccc2c(c1)N1CCOC[C@H]1[C@@](C)(C#N)C2 (racemic) [Example 88]" qualitative_label=Y
compound="Cc1ccc(NC(=O)c2ccnc(C(C)(F)F)c2)cc1-c1cc2c(nn1)OCC1COCCN21 (racemic)" qualitative_label=Y

---

Reported pIC50 values follow for various compounds
TESTED_SYSTEM: C-Raf FL (full length CRAF with Y340E and Y341E activating mutations, co-expressed with h14-3-3 zeta) (Homo sapiens (Human), UniProt P04049, Y340E/Y341E)
PROTOCOL_DETAILS: In vitro Raf activity determination, AlphaScreen p-MEK readout, c-Raf (C-Raf FL)
CONDITION_CONTEXT: c-Raf approximately 4 nM, ATP 1 μM, pre-incubation 60 minutes, reaction 1 hour
pIC50: −log10 of the molar value.
MEASURED_ATTRIBUTE: pIC50

compound="Cc1ccc(NC(=O)c2ccnc(C(C)(F)F)c2)cc1-c1ccc2c(c1)N1CCOCC1CC2(C)O (racemic)" test_result=10.34
compound=Cc1ncc(NC(=O)c2cccc(C(F)(F)F)c2)cc1-c1cnc2c(c1)N1CCOC[C@H]1[C@H](CO)C2 test_result=10.96
compound=Cc1ccc(NC(=O)c2ccnc(C(C)(F)F)c2)cc1-c1ccc2c(c1)N1CCOC[C@@H]1[C@](F)(CO)C2 test_result=9.52
compound=Cc1ncc(NC(=O)c2cccc(C(F)(F)F)c2)cc1-c1cc(F)c2c(c1)N1CCOC[C@H]1[C@@](F)(CO)C2 test_result=8.36
compound=Cc1ccc(NC(=O)c2ccnc(C(C)(F)F)c2)cc1-c1cc2c(cc1F)C[C@@](F)(CO)[C@@H]1COCCN21 test_result=8.96
compound=Cc1ncc(NC(=O)c2cccc(C(F)(F)F)c2)cc1-c1ccc2c(c1)N1CCOCC[C@H]1C[C@H]2O test_result=9.15

---

Listed next: entries and their corresponding IC50.
TESTED_SYSTEM: C-Raf FL (full length CRAF with Y340E and Y341E activating mutations, co-expressed with h14-3-3 zeta) (Homo sapiens (Human), UniProt P04049, Y340E/Y341E)
PROTOCOL_DETAILS: In vitro Raf activity determination, AlphaScreen p-MEK readout, c-Raf (C-Raf FL)
CONDITION_CONTEXT: c-Raf approximately 4 nM, ATP 1 μM, pre-incubation 60 minutes, reaction 1 hour
MEASURED_ATTRIBUTE: IC50

molecule=Cc1ccc(NC(=O)c2ccnc(C(C)(F)F)c2)cc1-c1cnc2c(c1)N1CCOC[C@@H]1[C@@](C#N)(CF)C2 measured_attribute=IC50 test_result="100 pM"
molecule="Cc1ccc(NC(=O)c2ccnc(C(C)(F)F)c2)cc1-c1ccc2c(c1)N1CCOCC1C(CO)(CO)C2 (racemic)" measured_attribute=IC50 test_result="13 pM"
molecule=Cc1ccc(NC(=O)c2ccnc(C(F)(F)F)c2)cc1-c1cnc2c(c1)N1CCOC[C@@H]1[C@@H](C(C)(C)O)C2 measured_attribute=IC50 test_result="800 pM"
molecule=Cc1ncc(NC(=O)c2cccc(C(F)(F)F)c2)cc1-c1cc(F)c2c(c1)N1CCOC[C@@H]1[C@@](F)(CO)C2 measured_attribute=IC50 test_result="400 pM"

---

TESTED_SYSTEM: C-Raf FL (full length CRAF with Y340E and Y341E activating mutations, co-expressed with h14-3-3 zeta) (Homo sapiens (Human), UniProt P04049, Y340E/Y341E)
PROTOCOL_DETAILS: In vitro Raf activity determination, AlphaScreen p-MEK readout, c-Raf (C-Raf FL)
Assay type: biochemical
CONDITION_CONTEXT: c-Raf approximately 4 nM, ATP 1 μM, pre-incubation 60 minutes, reaction 1 hour
pIC50: −log10 of the molar value.
MEASURED_ATTRIBUTE: pIC50

compound="Cc1ccc(NC(=O)c2ccnc(C(C)(F)F)c2)cc1-c1ccc2c(c1)N1CCOC[C@H]1[C@](F)(CO)C2 [Example 369]" measured_attribute=pIC50 test_result=9.52
compound="Cc1ccc(NC(=O)c2cncc(C(F)(F)F)c2)cc1-c1cc2c(cc1F)C[C@](F)(CO)[C@H]1COCCN21 [Example 488]" measured_attribute=pIC50 test_result=9.52
compound="Cc1ccc(NC(=O)c2ccnc(C(C)(C)F)c2)cc1-c1cc(F)c2c(c1)N1CCOC[C@@H]1[C@](F)(CO)C2 [Example 438]" measured_attribute=pIC50 test_result=9.10
compound="CCN1C(=O)[C@@H]2COCC[C@H]2c2cc(-c3cc(NC(=O)c4cccc(C(F)(F)F)c4)cnc3C)cnc21 [Example 312]" measured_attribute=pIC50 test_result=10.00
compound="Cc1ccc(NC(=O)c2ccnc(C(C)(F)F)c2)cc1-c1cc(F)c2c(c1)N1CCOC[C@@H]1[C@@](F)(CO)C2 [Example 425]" measured_attribute=pIC50 test_result=9.40
compound="Cc1ccc(NC(=O)c2ccnc(C(F)(F)F)c2)cc1-c1cnc2c(c1)N1CCOC[C@H]1C[C@@H]2O (racemic) [Example 37]" measured_attribute=pIC50 test_result=11.09
compound="CCN1C[C@H]2CCOCCN2c2cc(-c3cc(NC(=O)c4cccc(C(F)(F)F)c4)cnc3C)cnc2C1=O [Example 507]" measured_attribute=pIC50 test_result=7.57
compound="Cc1ccc(NC(=O)c2ccnc(C(C)(F)F)c2)cc1-c1ccc2c(c1)N1CCOC[C@]1(C)C[C@@H]2O (relative stereo) [Example 26]" measured_attribute=pIC50 test_result=10.85
compound="CCN1C(=O)[C@H]2COCC[C@@H]2c2cc(-c3cc(NC(=O)c4cccc(C(F)(F)F)c4)cnc3C)cnc21 [Example 309]" measured_attribute=pIC50 test_result=9.52
compound="CCN1C[C@H]2COCCN2c2cc(-c3cc(NC(=O)c4cccc(C(F)(F)F)c4)cnc3C)cnc2C1=O [Example 497]" measured_attribute=pIC50 test_result=8.85
compound="Cc1ncc(NC(=O)c2ccnc(C(C)(C)F)c2)cc1-c1ccc2c(c1)N1CCOCC[C@H]1C[C@H]2O [Example 444]" measured_attribute=pIC50 test_result=9.40
compound="Cc1ccc(NC(=O)c2ccnc(C(C)(F)F)c2)cc1-c1ccc2c(c1)N1CCOC[C@H]1[C@](F)(CO)C2 [Example 80]" measured_attribute=pIC50 test_result=9.38
